- measurement target: Avi-KRAS G12R (1-169) GppNHp/RAF1 RBD-3xFLAG (52-151) (Homo sapiens, UniProt P01116, G12R)
- Construct: Avi-KRAS G12R (1-169)
- Sequence (P01116 1-169 isoform P01116-2 G12R): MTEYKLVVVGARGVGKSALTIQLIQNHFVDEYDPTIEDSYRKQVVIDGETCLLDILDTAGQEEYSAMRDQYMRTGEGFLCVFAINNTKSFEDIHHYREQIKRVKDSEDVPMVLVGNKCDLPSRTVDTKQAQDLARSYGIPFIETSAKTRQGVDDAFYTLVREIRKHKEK
- assay protocol: Raf1-KRAS G12R-GppNHP disruption HTRF assay (Biological Example 1)
- Format: binding
- condition: KRAS G12R, GppNHp-loaded; class symbols
pIC50: −log10 of the molar value.
metric name: pIC50

Worked cases, answers included:
>>> result("CCN(c1nc(OC[C@@]23CCCN2C[C@H](F)C3)nc2c(F)c(-c3ccc(F)c4sc(N)c(C#N)c34)c(C(F)(F)F)cc12)[C@H]1CCN(C(=O)[C@@H]2C[C@H]2F)C1 (atropisomer, axis not shown) [Compound 768]")
"> 7.00"
>>> result("CCN(c1nc(OC[C@@]23CCCN2C[C@H](F)C3)nc2c(F)c(-c3ccc(F)c4sc(N)c(C#N)c34)c(C(F)(F)F)cc12)[C@H]1CCN(C(=O)OC2COC2)[C@@H]1C (atropisomer, axis not shown) [Compound 809]")
"> 7.00"
>>> result("CCN(c1nc(OC[C@@]23CCCN2C[C@H](F)C3)nc2c(F)c(-c3ccc(F)c4sc(N)c(C#N)c34)c(C(F)(F)F)cc12)[C@H]1CCN(C(=O)OC)[C@H]1C (atropisomer, axis not shown) [Compound 799]")
"5.00 to 6.00"
>>> result("CC#CC(=O)N1CC[C@@H](N(C)c2nc(OC[C@@]34CCCN3C[C@H](F)C4)nc3c(F)c(-c4ccc(F)c5sc(N)c(C#N)c45)c(C(F)(F)F)cc23)[C@H]1C [Compound 668]")
"6.00 to 7.00"
>>> result("CCN(c1nc(OC[C@@]23CCCN2C[C@H](F)C3)nc2c(F)c(-c3ccc(F)c4sc(N)c(C#N)c34)c(C(F)(F)F)cc12)[C@H]1C[C@@H](C)N(C(=O)c2ccon2)C1 (atropisomer, axis not shown) [Compound 783]")
"6.00 to 7.00"
>>> result("CCN(c1nc(OC[C@@]23CCCN2C[C@H](F)C3)nc2c(F)c(-c3ccc(F)c4sc(N)c(C#N)c34)c(C(F)(F)F)cc12)[C@H]1C[C@@H]2CN(C)C(=O)N2C1 (atropisomer, axis not shown) [Compound 605]")
"> 7.00"

Could you share which pIC50 value was measured for CCN(c1nc(OC[C@@]23CCCN2C[C@H](F)C3)nc2c(F)c(-c3ccc(F)c4sc(N)c(C#N)c34)c(C(F)(F)F)cc12)[C@@H]1CC(=O)N(CC(F)F)C1 (atropisomer, axis not shown) [Compound 612] ? > 7.00

Could you share which pIC50 value was measured for CC(=O)N1CC[C@H](N(CCF)c2nc(OC[C@@]34CCCN3C[C@H](F)C4)nc3c(F)c(-c4ccc(F)c5sc(N)c(C#N)c45)c(C(F)(F)F)cc23)C1 (atropisomer, axis not shown) [Compound 622] ? > 7.00

Could you share which pIC50 value was measured for CCOC(=O)N1CC[C@H](N(CC)c2nc(OC[C@@]34CCCN3C[C@H](F)C4)nc3c(F)c(-c4ccc(F)c5sc(N)c(C#N)c45)c(C(F)(F)F)cc23)C1 (atropisomer, axis not shown) [Compound 686] ? > 7.00

Could you share which pIC50 value was measured for CCN(c1nc(OCC23CCCN2CC(F)C3)nc2c(F)c(-c3ccc(F)c4sc(N)c(C#N)c34)c(C(F)(F)F)cc12)C1CC(C)N(C(=O)C2CC2(F)F)C1 (centres unmarked) [Compound 732] ? > 7.00
